FOLR2 (Homo sapiens (Human), UniProt P14207): reported Kd for various molecules.
readout: Kd (nM)

smiles-input	unit	readout-value
Cc1nc2cc(F)c(-c3cnc(OCCCCCn4cc(COCCOCCOCCOCCOCCOCCNC(=O)CC[C@H](NC(=O)c5ccc(NCc6cnc7nc(N)nc(O)c7n6)cc5)C(=O)O)nn4)nc3)nc2c(N[C@H](C)c2cc(C#N)ccc2F)c1Cl	nM	0.4
Cc1nc2cc(F)c(-c3cnc(OCCCCCn4cc(COCCOCCNC(=O)CC[C@H](NC(=O)c5ccc(NCc6cnc7nc(N)nc(O)c7n6)cc5)C(=O)O)nn4)nc3)nc2c(N[C@H](C)c2cc(C#N)ccc2F)c1Cl	nM	0.3
Cc1nc2cc(F)c(-c3cnc(OCCCCCn4cc(COCCNC(=O)CC[C@H](NC(=O)c5ccc(NCc6cnc7nc(N)nc(O)c7n6)cc5)C(=O)O)nn4)nc3)nc2c(N[C@H](C)c2cc(C#N)ccc2F)c1Cl	nM	0.3
Cc1nc2ccc(-c3cnc(OCCOCCn4cc(COCCOCCOCCOCCNC(=O)CC[C@H](NC(=O)c5ccc(NCc6cnc7nc(N)nc(O)c7n6)cc5)C(=O)O)nn4)nc3)cc2n1Cc1ccccc1OC(F)F	nM	0.4

* * *

Reported TC 300 nM- tagless TNF Normalized by item:
# target-under-test: TNFα and streptavidin immobilized FOL2R (Homo sapiens (Human), UniProt P01375+P14207)
# Sequence (P14207 17-230): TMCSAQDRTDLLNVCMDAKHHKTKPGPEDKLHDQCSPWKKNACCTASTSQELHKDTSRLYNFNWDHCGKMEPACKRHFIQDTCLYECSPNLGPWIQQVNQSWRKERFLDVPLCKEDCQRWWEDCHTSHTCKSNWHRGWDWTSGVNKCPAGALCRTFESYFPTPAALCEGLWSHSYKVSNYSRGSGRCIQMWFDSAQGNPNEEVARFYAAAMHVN
# Sequence (P01375 77-233): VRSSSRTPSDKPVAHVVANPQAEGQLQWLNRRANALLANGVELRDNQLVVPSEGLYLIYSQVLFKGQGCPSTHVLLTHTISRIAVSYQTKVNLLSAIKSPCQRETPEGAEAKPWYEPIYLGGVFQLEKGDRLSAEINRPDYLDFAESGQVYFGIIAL
# protocol-text: Ternary complex SPR assay
# Assay type: binding
# experimental-conditions: 300 nM untagged TNF, 10 nM compound; max response normalized to expected response
Numeric only. Scale: %

A selection of reference data follows.
compound	target-under-test	TC 300 nM- tagless TNF Normalized [%]
Cc1nc2cc(F)c(-c3cnc(N4CCN(C(=O)COCCOCCOCCOCCOCCOCCn5cc(CC[C@H](NC(=O)c6ccc(OCc7ccc8nc(N)nc(O)c8c7)cc6)C(=O)O)nn5)CC4)nc3)nc2c(N[C@H](C)c2cc(C#N)ccc2F)c1Cl [Compound I-87]	TNFα and streptavidin immobilized FOL2R (Homo sapiens (Human), UniProt P01375+P14207)	32.8
Cc1nc2cc(F)c(-c3cnc(N4CCN(C(=O)COCCn5cc(CN(CCO)CCOCCOCCOCCNC(=O)CC[C@H](NC(=O)c6ccc(NCc7cnc8nc(N)nc(O)c8n7)cc6)C(=O)O)nn5)CC4)nc3)nc2c(N[C@H](C)c2cc(C#N)ccc2F)c1Cl [Compound I-93]	TNFα and streptavidin immobilized FOL2R (Homo sapiens (Human), UniProt P01375+P14207)	18.2

# evaluate next
Fill in the blank: the reported TC 300 nM- tagless TNF Normalized of Cc1nc2cc(F)c(-c3cnc(N4CCN(C(=O)COCCn5cc(COCCOCCOCCN6CCN(C(=O)CC[C@H](NC(=O)c7ccc(NCc8cnc9nc(N)nc(O)c9n8)cc7)C(=O)O)CC6)nn5)CC4)nc3)nc2c(N[C@H](C)c2cc(C#N)ccc2F)c1Cl [Compound I-95] is ____. 18.6

* * *

# target-under-test: TNFα (Homo sapiens (Human), UniProt P01375)
# Sequence (P01375 77-233): as above
readout: pIC50
Remember the convention: pIC50 equals -log10 of concentration in molar.

smiles-input	pIC50
Cc1nc2cc(F)c(-c3cnc(N4CCN(C(=O)COCCOCCOCCOCCOCCOCCn5cc(CC[C@H](NC(=O)c6ccc(N(C)Cc7ccc8nc(N)[nH]c(=O)c8c7)cc6)C(=O)O)nn5)CC4)nc3)nc2c(N[C@H](C)c2cc(C#N)ccc2F)c1Cl	7.89

Could you share which pIC50 value was measured for Cc1nc2cc(F)c(-c3cnc(N4CCN(C(=O)COCCn5cc(COCCOCCOCCOCCNC(=O)CCCNC(=O)c6ccc(NCc7cnc8nc(N)nc(O)c8n7)cc6)nn5)CC4)nc3)nc2c(N[C@H](C)c2cc(C#N)ccc2F)c1Cl ? 7.25

pIC50 for Cc1nc2cc(F)c(-c3cnc(N4CCN(C(=O)COCCOCCOCCOCCOCCOCCn5cc(CC[C@H](NC(=O)c6ccc(SCc7ccc8nc(N)nc(O)c8c7)cc6)C(=O)O)nn5)CC4)nc3)nc2c(N[C@H](C)c2cc(C#N)ccc2F)c1Cl ? 7.77

Could you tell me which pIC50 is on file for Cc1nc2cc(F)c(-c3cnc(N4CC5(CN(C(=O)COCCOCCOCCOCCOCCOCCn6cc(CC[C@H](NC(=O)c7ccc(NCc8cnc9nc(N)nc(O)c9n8)cc7)C(=O)O)nn6)C5)C4)nc3)nc2c(N[C@H](C)c2cc(C#N)ccc2F)c1Cl ? 7.41

// lookup pIC50 for Cc1nc2cc(F)c(-c3cnc(N4CCN(C(=O)COCCOCCOCCOCCN5CCN(C(=O)CC[C@H](NC(=O)c6ccc(N(C)Cc7cnc8nc(N)[nH]c(=O)c8n7)cc6)C(=O)O)CC5)CC4)nc3)nc2c(N[C@H](C)c2cc(C#N)ccc2F)c1Cl 7.89

Data provenance is patent US20250127913A1.
